Each recorded value in this set is attributed to paper PMC8584173.

System: Superoxide dismutase [Mn], mitochondrial (SODM_HUMAN)
run_description: LC–MS proteome analysis, SODM
Format: cell-based, Homo sapiens
test_parameters: SW480, 24 h, IC50 concentration, % of control
measure: Protein Intensity, % (SODM) (%)
Respond with the bare value in %.

Examples from the recorded data:
compound	measured_result
O=[N+]([O-])c1cc([N+]2=C(Nc3ccc(Br)cc3)[S][Cu-2]23[S]C(Nc2ccc(Br)cc2)=[N+]3c2ccc(Cl)c([N+](=O)[O-])c2)ccc1Cl [Compound 3]	77.7
O=[N+]([O-])c1cc([N+]2=C(Nc3ccccc3Br)[S][Cu-2]23[S]C(Nc2ccccc2Br)=[N+]3c2ccc(Cl)c([N+](=O)[O-])c2)ccc1Cl [Compound 1]	67.8
O=[N+]([O-])c1cc([N+]2=C(Nc3ccc(I)cc3)[S][Cu-2]23[S]C(Nc2ccc(I)cc2)=[N+]3c2ccc(Cl)c([N+](=O)[O-])c2)ccc1Cl [Compound 8]	94.3

Query :: // lookup Protein Intensity, % (SODM) for O=[N+]([O-])c1cc([N+]2=C(Nc3ccccc3F)[S][Cu-2]23[S]C(Nc2ccccc2F)=[N+]3c2ccc(Cl)c([N+](=O)[O-])c2)ccc1Cl [Compound 7]
Result :: 65.1

---

Tested on: S. epidermidis 436
run_description: MIC, hospital MRSE strain
Format: cell-based, Staphylococcus epidermidis
test_parameters: hospital MRSE S. epidermidis 436
measure: MIC
Write the numeric value and append its unit.

Sample records with MIC:
cpd_smiles	MIC
O=[N+]([O-])c1cc([N+]2=C(Nc3ccc(I)cc3)[S][Cu-2]23[S]C(Nc2ccc(I)cc2)=[N+]3c2ccc(Cl)c([N+](=O)[O-])c2)ccc1Cl	8 µg/mL
O=[N+]([O-])c1cc([N+]2=C(Nc3ccccc3Br)[S][Cu-2]23[S]C(Nc2ccccc2Br)=[N+]3c2ccc(Cl)c([N+](=O)[O-])c2)ccc1Cl	8 µg/mL

The record that follows has no MIC shown yet.
Query :: Would you kindly share the measured MIC for O=[N+]([O-])c1cc(NC2=[N+](c3ccc(Cl)c([N+](=O)[O-])c3)[Cu-2]3([S]2)[S]C(Nc2ccc(Cl)c([N+](=O)[O-])c2)=[N+]3c2ccc(Cl)c([N+](=O)[O-])c2)ccc1Cl ?
Result :: 128 µg/mL

---

MIC for assorted compounds
System: C. albicans ATCC 10231
run_description: MIC, twofold serial microdilution
Format: cell-based, Candida albicans
test_parameters: C. albicans ATCC 10231, 24 h, 35 °C
The response must be a number in µg/mL with no trailing unit.

cpd_smiles	tested_system	measure	measured_result
O=[N+]([O-])c1cc([N+]2=C(Nc3ccc(F)c(Cl)c3)[S][Cu-2]23[S]C(Nc2ccc(F)c(Cl)c2)=[N+]3c2ccc(Cl)c([N+](=O)[O-])c2)ccc1Cl	C. albicans ATCC 10231	MIC	128
O=[N+]([O-])c1cc([N+]2=C(Nc3ccc(I)cc3)[S][Cu-2]23[S]C(Nc2ccc(I)cc2)=[N+]3c2ccc(Cl)c([N+](=O)[O-])c2)ccc1Cl	C. albicans ATCC 10231	MIC	64

Query :: MIC for O=[N+]([O-])c1cc(NC2=[N+](c3ccc(Cl)c([N+](=O)[O-])c3)[Cu-2]3([S]2)[S]C(Nc2ccc(Cl)c([N+](=O)[O-])c2)=[N+]3c2ccc(Cl)c([N+](=O)[O-])c2)ccc1Cl ?
Result :: 64

Query :: Look at this compound and give its reported MIC. O=[N+]([O-])c1cc([N+]2=C(Nc3cccc(Br)c3)[S][Cu-2]23[S]C(Nc2cccc(Br)c2)=[N+]3c2ccc(Cl)c([N+](=O)[O-])c2)ccc1Cl
Result :: 64
